molecular target: T1, Cynomolgus Factor P (cynomolgus); assay: SET, solution equilibrium titration
T1 construct: Purified from cynomolgus serum for SET/Biacore; Factor P of cynomolgus serum in the functional assays; also called Cyno Factor P; cyno FP
Kd strictly under 0.1 nM means yes; at 0.1 nM or over means no.

Threshold test, Kd < 0.1 nM: NVS965 (Fab, V domains shown, Disulfide-bridged Fab; also called Fab NVS965) VH: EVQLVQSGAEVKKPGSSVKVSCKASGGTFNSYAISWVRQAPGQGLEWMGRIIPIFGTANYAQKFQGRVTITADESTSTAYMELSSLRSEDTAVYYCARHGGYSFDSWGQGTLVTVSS VL: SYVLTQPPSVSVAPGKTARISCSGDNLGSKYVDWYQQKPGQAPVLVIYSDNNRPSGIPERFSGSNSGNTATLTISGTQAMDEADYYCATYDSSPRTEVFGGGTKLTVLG yes

Threshold test, Kd < 0.1 nM: NVS964 (Fab, V domains shown, Disulfide-bridged Fab; also called Fab NVS964) VH: EVQLVQSGAEVKKPGASVKVSCKASGYTFTSHYMHWVRQAPGQGLEWMGKINADLGDTNYAQKFQGRVTMTRDTSISTAYMELSSLRSEDTAVYYCARDGIEHGGHYYWGYLFDIWGQGTLVTVSS VL: SYELTQPPSVSVAPGQTARISCSGDSIREYYVHWYQQKPGQAPVLVIGDDTNRPSGIPERFSGSNSGNTATLTISGTQAEDEADYYCAAWDFSPAIVFGGGTKLTVLG no

Threshold test, Kd < 0.1 nM: NVS965-T (Fab, V domains shown, NVS965 with heavy chain N30 replaced with threonine) VH: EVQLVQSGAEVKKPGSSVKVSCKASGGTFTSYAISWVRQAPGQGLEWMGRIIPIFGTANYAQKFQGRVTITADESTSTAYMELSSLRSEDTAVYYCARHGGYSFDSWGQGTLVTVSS VL: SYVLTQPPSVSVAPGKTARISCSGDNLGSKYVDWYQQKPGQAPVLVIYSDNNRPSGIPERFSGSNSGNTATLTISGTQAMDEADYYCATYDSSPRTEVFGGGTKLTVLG yes

Threshold test, Kd < 0.1 nM: NVS962-S (Fab, V domains shown, NVS962 with heavy chain N30 replaced with serine) VH: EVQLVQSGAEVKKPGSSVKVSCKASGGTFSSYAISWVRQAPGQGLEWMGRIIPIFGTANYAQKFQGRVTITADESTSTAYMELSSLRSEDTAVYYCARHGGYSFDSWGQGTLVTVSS VL: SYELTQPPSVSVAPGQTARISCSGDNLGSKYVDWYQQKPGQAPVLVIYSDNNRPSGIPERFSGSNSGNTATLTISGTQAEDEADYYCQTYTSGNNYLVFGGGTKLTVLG no

Threshold test, Kd < 0.1 nM: NVS965-Q (Fab, V domains shown, NVS965 with heavy chain N30 replaced with glutamine) VH: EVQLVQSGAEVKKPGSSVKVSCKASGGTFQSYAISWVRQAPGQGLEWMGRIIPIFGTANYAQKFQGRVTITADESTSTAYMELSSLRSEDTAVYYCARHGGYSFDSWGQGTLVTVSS VL: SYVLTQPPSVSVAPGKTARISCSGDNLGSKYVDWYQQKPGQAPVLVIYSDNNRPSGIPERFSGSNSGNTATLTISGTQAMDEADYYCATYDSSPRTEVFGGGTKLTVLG no

Threshold test, Kd < 0.1 nM: NVS962-Q (Fab, V domains shown, NVS962 with heavy chain N30 replaced with glutamine (deamidation site removed)) VH: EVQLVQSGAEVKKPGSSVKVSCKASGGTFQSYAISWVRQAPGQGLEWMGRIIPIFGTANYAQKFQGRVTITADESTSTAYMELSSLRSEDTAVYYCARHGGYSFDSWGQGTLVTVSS VL: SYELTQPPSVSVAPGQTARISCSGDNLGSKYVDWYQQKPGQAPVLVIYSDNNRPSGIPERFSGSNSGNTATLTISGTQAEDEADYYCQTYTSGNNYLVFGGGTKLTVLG no

Threshold test, Kd < 0.1 nM: NVS962-S31A (Fab, V domains shown, NVS962 with heavy chain serine 31 replaced with alanine) VH: EVQLVQSGAEVKKPGSSVKVSCKASGGTFNAYAISWVRQAPGQGLEWMGRIIPIFGTANYAQKFQGRVTITADESTSTAYMELSSLRSEDTAVYYCARHGGYSFDSWGQGTLVTVSS VL: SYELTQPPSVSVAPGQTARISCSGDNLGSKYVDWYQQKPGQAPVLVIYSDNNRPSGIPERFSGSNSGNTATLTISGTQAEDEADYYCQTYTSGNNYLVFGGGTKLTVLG no

Threshold test, Kd < 0.1 nM: NVS962-T (Fab, V domains shown, NVS962 with heavy chain N30 replaced with threonine; also called NSV962-T) VH: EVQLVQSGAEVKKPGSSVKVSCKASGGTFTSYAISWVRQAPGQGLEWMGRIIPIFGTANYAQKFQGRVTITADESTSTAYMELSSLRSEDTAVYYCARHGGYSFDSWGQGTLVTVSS VL: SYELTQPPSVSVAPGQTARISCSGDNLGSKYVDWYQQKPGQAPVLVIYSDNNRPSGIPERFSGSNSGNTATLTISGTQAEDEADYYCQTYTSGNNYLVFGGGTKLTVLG no

Threshold test, Kd < 0.1 nM: NVS962-G (Fab, V domains shown, NVS962 with heavy chain N30 replaced with glycine) VH: EVQLVQSGAEVKKPGSSVKVSCKASGGTFGSYAISWVRQAPGQGLEWMGRIIPIFGTANYAQKFQGRVTITADESTSTAYMELSSLRSEDTAVYYCARHGGYSFDSWGQGTLVTVSS VL: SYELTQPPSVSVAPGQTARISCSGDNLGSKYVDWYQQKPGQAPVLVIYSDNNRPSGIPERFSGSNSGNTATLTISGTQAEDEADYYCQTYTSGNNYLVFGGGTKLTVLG no

Threshold test, Kd < 0.1 nM: NVS962 (Fab, V domains shown, also called Fab NVS962) VH: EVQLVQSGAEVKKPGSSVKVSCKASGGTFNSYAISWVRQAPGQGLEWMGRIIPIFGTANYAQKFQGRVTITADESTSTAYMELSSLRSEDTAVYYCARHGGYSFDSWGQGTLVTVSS VL: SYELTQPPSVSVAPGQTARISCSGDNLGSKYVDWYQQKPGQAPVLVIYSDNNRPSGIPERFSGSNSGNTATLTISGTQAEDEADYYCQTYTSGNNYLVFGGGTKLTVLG yes
